Biological target: von Hippel-Lindau disease tumor suppressor/Bromodomain-containing protein 4 (Homo sapiens, UniProt O60885+P40337)
Sequence (P40337 whole entry, looked up, other chains not shown): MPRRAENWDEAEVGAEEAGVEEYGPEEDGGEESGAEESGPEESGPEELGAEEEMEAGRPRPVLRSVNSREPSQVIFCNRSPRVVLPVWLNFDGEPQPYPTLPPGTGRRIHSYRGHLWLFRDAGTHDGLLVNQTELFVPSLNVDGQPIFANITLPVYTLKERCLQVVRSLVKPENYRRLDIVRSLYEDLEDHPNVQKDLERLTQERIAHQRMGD
Assay: PROTAC activity at VHL/BRD4 in human LNCaP cells assessed as reduction in protein degradation measured after 6 hrs by Western blot analysis

| structure_notation | unit_abbrev | EC50 |
| --- | --- | --- |
| Cc1sc2c(c1C)C(c1ccc(-c3ccc(C(=O)NCc4ccc(S(=O)(=O)Nc5ccc(C)c6c(C#N)c[nH]c56)cc4)cc3)cc1)=N[C@@H](CC(=O)OC(C)(C)C)c1nnc(C)n1-2 | nM | 0.15 |

----------
Target: DCAF1-BRD9 (Homo sapiens, UniProt Q9H8M2+Q9Y4B6)
Sequence (Q9H8M2 whole entry): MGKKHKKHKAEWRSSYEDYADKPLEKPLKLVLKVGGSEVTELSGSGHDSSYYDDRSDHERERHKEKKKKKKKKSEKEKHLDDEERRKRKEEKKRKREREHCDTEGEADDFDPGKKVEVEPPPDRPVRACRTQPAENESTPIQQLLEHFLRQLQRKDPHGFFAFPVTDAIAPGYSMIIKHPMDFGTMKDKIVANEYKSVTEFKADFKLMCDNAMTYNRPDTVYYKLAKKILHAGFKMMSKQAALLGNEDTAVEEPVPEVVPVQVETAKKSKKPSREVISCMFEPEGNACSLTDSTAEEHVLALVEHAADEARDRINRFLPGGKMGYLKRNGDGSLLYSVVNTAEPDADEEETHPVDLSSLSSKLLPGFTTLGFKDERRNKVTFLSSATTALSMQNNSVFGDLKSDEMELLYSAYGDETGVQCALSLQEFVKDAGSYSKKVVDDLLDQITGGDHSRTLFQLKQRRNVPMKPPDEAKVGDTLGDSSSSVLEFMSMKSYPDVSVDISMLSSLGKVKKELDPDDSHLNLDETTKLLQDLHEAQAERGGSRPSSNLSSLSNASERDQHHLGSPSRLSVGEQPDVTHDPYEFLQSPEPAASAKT
Sequence (Q9Y4B6 whole entry): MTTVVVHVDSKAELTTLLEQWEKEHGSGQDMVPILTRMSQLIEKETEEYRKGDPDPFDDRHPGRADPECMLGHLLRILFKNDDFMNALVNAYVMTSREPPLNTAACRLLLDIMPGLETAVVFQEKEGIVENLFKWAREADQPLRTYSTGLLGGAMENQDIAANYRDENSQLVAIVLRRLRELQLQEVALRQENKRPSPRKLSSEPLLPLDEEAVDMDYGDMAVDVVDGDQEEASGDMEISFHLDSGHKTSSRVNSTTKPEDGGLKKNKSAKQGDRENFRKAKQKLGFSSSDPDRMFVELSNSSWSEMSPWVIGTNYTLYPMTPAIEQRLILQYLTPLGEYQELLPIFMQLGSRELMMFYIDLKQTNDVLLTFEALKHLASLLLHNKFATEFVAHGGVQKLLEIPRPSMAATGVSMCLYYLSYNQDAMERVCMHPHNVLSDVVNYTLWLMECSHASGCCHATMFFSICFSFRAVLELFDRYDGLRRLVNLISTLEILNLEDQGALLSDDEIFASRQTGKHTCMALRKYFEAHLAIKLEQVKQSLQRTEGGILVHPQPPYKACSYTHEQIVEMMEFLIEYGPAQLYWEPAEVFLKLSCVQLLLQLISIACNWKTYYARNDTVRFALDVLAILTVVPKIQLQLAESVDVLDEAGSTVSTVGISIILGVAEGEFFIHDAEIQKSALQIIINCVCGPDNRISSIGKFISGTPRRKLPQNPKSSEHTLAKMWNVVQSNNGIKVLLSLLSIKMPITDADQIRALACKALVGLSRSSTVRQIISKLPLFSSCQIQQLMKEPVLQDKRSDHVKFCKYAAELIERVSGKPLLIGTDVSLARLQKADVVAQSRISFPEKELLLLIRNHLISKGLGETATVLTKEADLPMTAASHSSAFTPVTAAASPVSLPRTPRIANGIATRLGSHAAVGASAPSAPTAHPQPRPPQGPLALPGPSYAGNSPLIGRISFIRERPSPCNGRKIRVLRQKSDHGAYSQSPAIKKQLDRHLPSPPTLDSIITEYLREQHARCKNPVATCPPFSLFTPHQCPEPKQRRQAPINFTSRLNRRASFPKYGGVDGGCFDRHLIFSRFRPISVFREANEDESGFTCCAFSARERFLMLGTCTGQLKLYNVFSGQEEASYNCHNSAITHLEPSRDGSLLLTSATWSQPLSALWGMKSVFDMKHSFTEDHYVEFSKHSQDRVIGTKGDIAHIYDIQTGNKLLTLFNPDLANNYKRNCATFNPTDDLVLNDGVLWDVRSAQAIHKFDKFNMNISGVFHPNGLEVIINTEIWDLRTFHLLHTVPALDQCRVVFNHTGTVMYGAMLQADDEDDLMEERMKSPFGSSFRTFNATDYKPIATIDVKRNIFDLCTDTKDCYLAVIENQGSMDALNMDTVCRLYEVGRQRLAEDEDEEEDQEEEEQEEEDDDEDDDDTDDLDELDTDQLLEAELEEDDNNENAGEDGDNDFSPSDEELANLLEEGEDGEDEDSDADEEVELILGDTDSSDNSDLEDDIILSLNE
Assay: PROTAC activity at DCAF1/BRD9 in HEK293T cells co expressing HiBit/FF/CAS9 assessed as reduction of protein degradation measured after 6 hrs by immunoblotting analysis
pEC50: −log10 of the molar value.

| structure_notation | pEC50 |
| --- | --- |
| COc1cc(-c2cncc3c(=O)n(C)ccc23)c(OC)cc1CN1CCC(OCCCCCC(=O)N2CCN(c3ccc4c(NCCN)nc(C5(c6ccc(Cl)cc6)CCCCC5)nc4c3)CC2)CC1 | ~6.30 |
